biological target: Ascaris suum succinate-ubiquinone reductase (mitochondrial complex II) (Ascaris suum, UniProt O44074+P92506+P92507); experiment: In vitro measurement of inhibitory activity on Ascaris suum succinate-ubiquinone reductase (mitochondrial complex II); details: mitochondria from adult Ascaris suum muscle, UQ2 60 μM, succinate 10 mM, 25° C.
Sequence (O44074 22-282): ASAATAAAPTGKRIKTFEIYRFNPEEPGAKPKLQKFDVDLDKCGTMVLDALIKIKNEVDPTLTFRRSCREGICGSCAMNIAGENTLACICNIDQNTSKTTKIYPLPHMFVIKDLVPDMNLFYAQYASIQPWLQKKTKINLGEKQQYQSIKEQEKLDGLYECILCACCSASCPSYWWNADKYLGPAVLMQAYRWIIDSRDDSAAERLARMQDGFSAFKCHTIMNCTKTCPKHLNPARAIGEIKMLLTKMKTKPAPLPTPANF
Sequence (P92506 32-188): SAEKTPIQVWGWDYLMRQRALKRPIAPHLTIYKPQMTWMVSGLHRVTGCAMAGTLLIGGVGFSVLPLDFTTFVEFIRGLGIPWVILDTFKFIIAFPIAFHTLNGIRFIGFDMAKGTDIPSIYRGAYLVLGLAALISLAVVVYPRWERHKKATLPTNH
Sequence (P92507 26-156): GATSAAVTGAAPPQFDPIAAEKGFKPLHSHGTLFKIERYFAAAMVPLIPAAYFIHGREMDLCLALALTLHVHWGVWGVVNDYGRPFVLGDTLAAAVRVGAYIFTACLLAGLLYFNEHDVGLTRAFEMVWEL
Sequence (Q33862 19-645 partner): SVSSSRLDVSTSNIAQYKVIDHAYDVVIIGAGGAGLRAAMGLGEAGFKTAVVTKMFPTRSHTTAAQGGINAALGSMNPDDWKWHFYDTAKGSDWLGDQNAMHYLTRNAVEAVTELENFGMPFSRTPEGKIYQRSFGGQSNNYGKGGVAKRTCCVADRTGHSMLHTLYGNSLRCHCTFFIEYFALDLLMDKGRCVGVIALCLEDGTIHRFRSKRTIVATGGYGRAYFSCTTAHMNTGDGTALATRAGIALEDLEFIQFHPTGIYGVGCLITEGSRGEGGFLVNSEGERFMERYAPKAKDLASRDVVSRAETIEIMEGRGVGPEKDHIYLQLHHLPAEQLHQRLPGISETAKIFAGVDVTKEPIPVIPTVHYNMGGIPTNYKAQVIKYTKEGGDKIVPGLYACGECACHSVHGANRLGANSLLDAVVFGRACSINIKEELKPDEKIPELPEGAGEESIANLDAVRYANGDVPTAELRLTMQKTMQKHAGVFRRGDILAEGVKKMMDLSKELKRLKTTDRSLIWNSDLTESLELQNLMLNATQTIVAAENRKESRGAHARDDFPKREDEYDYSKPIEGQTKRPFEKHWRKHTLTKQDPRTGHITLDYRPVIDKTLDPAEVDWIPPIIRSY
Listed below: IC50 values for each entry.
Reply with the number and its unit after it.

COMPOUND	IC50
O=C(NCCc1ncc(C(F)(F)F)cc1Cl)c1ccccc1I	1.2 nM
CSc1cc(C(F)(F)F)n(C[C@H](C)NC(=O)c2ccccc2C(F)(F)F)n1	3.1 nM
C[C@@H](Cn1nc(Cl)c(Br)c1Cl)NC(=O)c1ccccc1C(F)(F)F	1.4 nM
O=C(NCCNc1ncc(C(F)(F)F)cc1Cl)c1ccccc1C(F)(F)F	11 nM
C[C@@H](Cn1nc(Cl)c(Br)c1C(F)(F)F)NC(=O)c1ccccc1C(F)(F)F	1.7 nM
C[C@@H](Cn1nc(C(F)(F)F)c(Cl)c1Cl)NC(=O)c1ccccc1C(F)(F)F	1.9 nM
O=C(NCCc1ccc(Cl)cc1Cl)c1ccccc1OC(F)(F)F	48 nM
O=C(NCCc1ncc(C(F)(F)F)cc1Cl)c1ccccc1Cl	2.1 nM

Record summary for C[S+]([O-])c1ccc(CCNC(=O)c2ccccc2C(F)(F)F)c(Cl)c1 (stereo not drawn) : reported IC50 = 260 nM

====

Molecular target: Ascaris suum succinate-ubiquinone reductase (mitochondrial complex II) (Ascaris suum, UniProt O44074+P92506+P92507)
Assay: In vitro measurement of inhibitory activity on Ascaris suum succinate-ubiquinone reductase (mitochondrial complex II)
Conditions: mitochondria from adult Ascaris suum muscle, UQ2 60 μM, succinate 10 mM, 25° C.
Description: In Vitro Measurement of Inhibitory Activity on Ascaris suum Succinate-Ubiquinone Reductase (Mitochondrial Complex II) To a solution containing 50 mM potassium phosphate (pH 7.4) and 0.1% (w/v) sucrose monolaurate, an electron acceptor ubiquinone-2 (UQ2) was added at a final concentration of 60 μM, and the mixture was allowed to stand at 25° C. for 20 minutes. […]
Listed below: IC50 values for each entry.
Reply with the number and its unit after it.

Consider the following illustrative entries.
SMILES REPR	RESULT
Cc1ccccc1C(=O)N[C@@H](C)Cn1nc(Cl)c(Br)c1C(F)(F)F	2 nM
C[C@@H](Cn1nc(Br)c(Br)c1Br)NC(=O)c1ccccc1C(F)(F)F	1.8 nM
C[C@@H](Cn1nc(C(F)(F)F)cc1Br)NC(=O)c1ccccc1C(F)(F)F	5.8 nM

Record summary for `O=C(NCCc1ccc(Oc2ncc(C(F)(F)F)cc2Cl)cc1Cl)c1ccccc1C(F)(F)F` : reported IC50 = 1.4 nM

Record summary for `C[C@@H](COc1ncc(C(F)(F)F)cc1Cl)NC(=O)c1ccccc1C(F)(F)F` : reported IC50 = 1.8 nM

Record summary for `C[C@@H](Cn1nc(Cl)cc1C(F)(F)F)NC(=O)c1ccccc1C(F)(F)F` : reported IC50 = 5.2 nM

====

Listed below: IC50 values for each entry.
Molecular target: Ascaris suum succinate-ubiquinone reductase (mitochondrial complex II) (Ascaris suum, UniProt O44074+P92506+P92507)
Test: In vitro measurement of inhibitory activity on Ascaris suum succinate-ubiquinone reductase (mitochondrial complex II)
Conditions: mitochondria from adult Ascaris suum muscle, UQ2 60 μM, succinate 10 mM, 25° C.
Protocol: In Vitro Measurement of Inhibitory Activity on Ascaris suum Succinate-Ubiquinone Reductase (Mitochondrial Complex II) To a solution containing 50 mM potassium phosphate (pH 7.4) and 0.1% (w/v) sucrose monolaurate, an electron acceptor ubiquinone-2 (UQ2) was added at a final concentration of 60 μM, and the mixture was allowed to stand at 25° C. for 20 minutes. […]
Express it in nM; write the number only.

Consider the following illustrative entries.
SMILES REPR	RESULT NUMBER
CSc1ccccc1C(=O)NCCc1ccc(Cl)cc1Cl	1.2
O=C(NCCc1ccc(Cl)cc1Cl)c1ccccc1SC(F)F	8.2

Record summary for `O=C(NCCc1ncc(C(F)(F)F)cc1Cl)c1c(Cl)cccc1Cl` : reported IC50 = 39

====

Listed below: IC50 values for each entry.
Target: Ascaris suum succinate-ubiquinone reductase (mitochondrial complex II) (Ascaris suum, UniProt O44074+P92506+P92507)
Assay: In vitro measurement of inhibitory activity on Ascaris suum succinate-ubiquinone reductase (mitochondrial complex II)
Settings: mitochondria from adult Ascaris suum muscle, UQ2 60 μM, succinate 10 mM, 25° C.
Description: In Vitro Measurement of Inhibitory Activity on Ascaris suum Succinate-Ubiquinone Reductase (Mitochondrial Complex II) To a solution containing 50 mM potassium phosphate (pH 7.4) and 0.1% (w/v) sucrose monolaurate, an electron acceptor ubiquinone-2 (UQ2) was added at a final concentration of 60 μM, and the mixture was allowed to stand at 25° C. for 20 minutes. […]
Express it in nM; write the number only.

Consider the following illustrative entries.
SMILES REPR	IC50 / nM
O=C(NCCc1ncc(C(F)(F)F)cc1Cl)c1ccccc1Br	2.3
O=C(NCCc1ncc(C(F)(F)F)cc1Cl)c1c(F)cccc1F	5.3

Record summary for `Cc1ccccc1C(=O)NCCc1ncc(C(F)(F)F)cc1Cl` : reported IC50 = 2.6

Origin of measurements: patent US9550749B2
